FYI, the data here is from paper PMC5696560.

experimental.setup: human, microsomes
assay.readout: Clint (µL/min/mg/protein)
Numeric answer only, unit µL/min/mg/protein assumed.

Some compounds with known Clint results, for comparison:
| cpd.smiles | unit.name | Clint |
| --- | --- | --- |
| COc1nc2ccc(Br)cc2cc1[C@@H](c1cccnc1N(C)C)[C@@](O)(CCN(C)C)c1cccc(F)c1 | µL/min/mg/protein | 45 |
| COc1nc2ccc(Br)cc2cc1[C@@H](c1ccc(N(C)C)nc1)[C@@](O)(CCN(C)C)c1cccc(F)c1 | µL/min/mg/protein | 38 |
| COc1nc2ccc(Br)cc2cc1[C@@H](c1cncc(C)c1)[C@@](O)(CCN(C)C)c1cccc(F)c1 | µL/min/mg/protein | 56 |
| COc1cc([C@H](c2cc3cc(Br)ccc3nc2OC)[C@@](O)(CCN(C)C)c2cccc(F)c2)cnc1OC | µL/min/mg/protein | 36 |
| CCSc1ccc([C@H](c2cc3cc(Br)ccc3nc2OC)[C@@](O)(CCN(C)C)c2cccc(F)c2)cn1 | µL/min/mg/protein | 11 |
| COc1nc2ccc(Br)cc2cc1[C@@H](c1cc(C)c(C)s1)[C@@](O)(CCN(C)C)c1cccc(F)c1 | µL/min/mg/protein | 12 |
| COc1nc2ccc(Br)cc2cc1[C@@H](c1ccnc(OC)c1OC)[C@@](O)(CCN(C)C)c1cccc(C#N)c1 | µL/min/mg/protein | 19 |
| COc1nc2ccc(Br)cc2cc1[C@@H](c1ccnc(OC)c1OC)[C@@](O)(CCN(C)C)c1cccc(C)c1 | µL/min/mg/protein | 13 |

Read the next record carefully.
Data request: Name the recorded Clint of the item COc1nc2ccc(Br)cc2cc1[C@@H](c1ccnc(OC)c1OC)[C@@](O)(CCN(C)C)c1cccc(OC(F)F)c1 in your answer.
Data returned: 11

* * *

assay.notes: in vitro
experimental.setup: human, human liver microsomes
Note to self: half-life under 20 min means true, ties and anything higher get false.

| cpd.smiles | classification |
| --- | --- |
| COc1nc2ccc(Br)cc2cc1[C@@H](c1cccnc1N(C)C)[C@@](O)(CCN(C)C)c1cccc(F)c1 | true |

Data request: half-life strictly < 20 min for this compound? COc1cc([C@H](c2cc3cc(Br)ccc3nc2OC)[C@@](O)(CCN(C)C)c2cccc(F)c2)cnc1OC
Data returned: true

Data request: half-life strictly < 20 min for this compound? COc1nc2ccc(Br)cc2cc1[C@@H](c1ccnc(OC)c1OC)[C@@](O)(CCN(C)C)c1cccc(C)c1
Data returned: false

Data request: half-life strictly < 20 min for this compound? COc1nc2ccc(Br)cc2cc1[C@@H](c1cncc(C)c1)[C@@](O)(CCN(C)C)c1cccc(F)c1
Data returned: true

Data request: half-life strictly < 20 min for this compound? COc1nc2ccc(Br)cc2cc1[C@@H](c1ccnc(OC)c1OC)[C@@](O)(CCN(C)C)c1cccc(OC(F)F)c1
Data returned: false

* * *

Test system: M.tb strain H37Rv
assay.notes: MABA: inhibition of growth of M.tb H37Rv under aerobic (replicating) conditions
Type: cell-based
experimental.setup: M.tb H37Rv; comparison with 1
assay.readout: anti-M.tb activity (in words)

| cpd.smiles | assay.readout | val |
| --- | --- | --- |
| COc1nc2ccc(Br)cc2cc1[C@@H](c1ccnc(OC)c1OC)[C@@](O)(CCN(C)C)c1cccc(OC(F)F)c1 | anti-M.tb activity (in words) | retain the potency of 1 |
| COc1cccc([C@](O)(CCN(C)C)[C@@H](c2cc3cc(Br)ccc3nc2OC)c2ccnc(OC)c2OC)c1 | anti-M.tb activity (in words) | retain the potency of 1 |
| COc1ccc([C@H](c2cc3cc(Br)ccc3nc2OC)[C@@](O)(CCN(C)C)c2cccnc2OC)s1 | anti-M.tb activity (in words) | effective inhibitors |
| COc1nc2ccc(Br)cc2cc1[C@@H](c1ccc(C)s1)[C@@](O)(CCN(C)C)c1cccnc1OC | anti-M.tb activity (in words) | effective inhibitors |
